Biological target: LHRH receptors (Rattus norvegicus)
Construct: Pituitary membranes containing LHRH receptors are prepared in batches from quick-frozen rat pituitaries; tissue Hilltop Labs; host or cells: rat pituitary membranes
Sequence (P30969 1-327): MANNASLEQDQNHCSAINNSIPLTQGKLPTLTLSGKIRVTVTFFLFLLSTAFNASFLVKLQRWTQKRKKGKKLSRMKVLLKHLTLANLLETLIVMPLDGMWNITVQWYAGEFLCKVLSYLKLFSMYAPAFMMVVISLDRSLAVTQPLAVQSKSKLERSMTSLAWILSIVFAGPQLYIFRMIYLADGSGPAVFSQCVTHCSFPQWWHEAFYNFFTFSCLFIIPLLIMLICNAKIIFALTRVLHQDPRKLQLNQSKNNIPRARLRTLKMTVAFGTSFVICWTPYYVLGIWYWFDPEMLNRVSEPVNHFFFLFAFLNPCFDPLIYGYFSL
Assay: Receptor Binding (radioligand receptor binding assay)
Conditions: table 4; rat pituitary membranes, radioligand 50 pM, 2 hours at 4° C.; read-out: Receptor Binding pkI (converted)
Square brackets hold non-standard residues; d marks the D form. Peptide text beside a SMILES is read from it. * marks the point of attachment. Propanoyl(3-(4-F-phenyl)) = O=C(CCc1ccc(F)cc1)*; Hydrocinnamoyl(2,4-F2) = O=C(CCc1ccc(F)cc1F)*; d1Nal = N[C@H](Cc1cccc2ccccc12)C(=O)O; NMeY = CN[C@@H](Cc1ccc(O)cc1)C(=O)O; NMeF = CN[C@@H](Cc1ccccc1)C(=O)O; Nicotinoyl = O=C(c1cccnc1)*
assay-readout: Ki (nM)
Write the value in nM as a bare number.

[[record]]
molecule = "CCNC(=O)[C@@H]1CCCN1C(=O)[C@H](CCCN=C(N)N)NC(=O)[C@H](CC(C)C)NC(=O)[C@@H](CCCCNC(=O)c1cccnc1)NC(=O)[C@H](Cc1ccc(O)cc1)N(C)C(=O)[C@H](CO)NC(=O)[C@@H](Cc1c[nH]c2ccccc12)NC(=O)CCc1ccc(F)cc1F [Compound 152] ({Hydrocinnamoyl(2,4-F2)}-[dW]S[NMeY][dK](Nicotinoyl)LRP-NHEt)"
assay_readout = "Ki"
measured = 0.0214


Proceeding to the next molecule to report its Ki.
Query: Ki; subject: CC(C)C[C@H](NC(=O)[C@@H](CCCCN)NC(=O)[C@H](Cc1ccccc1)N(C)C(=O)[C@H](CO)NC(=O)[C@@H](Cc1cccc2ccccc12)NC(=O)CCc1ccc(F)cc1)C(=O)N[C@@H](CCCNC(=N)N)C(=O)N1CCC[C@H]1C(=O)N[C@H](C)C(N)=O [Compound 189] ({Propanoyl(3-(4-F-phenyl))}-[d1Nal]S[NMeF][dK]LRP[dA]-NH2)
Reply: 0.0055

* * *

Biological target: LHRH receptors (Rattus norvegicus, UniProt P30969)
Construct: Pituitary membranes containing LHRH receptors are prepared in batches from quick-frozen rat pituitaries; tissue Hilltop Labs; host or cells: rat pituitary membranes
Experiment: Receptor Binding (radioligand receptor binding assay)
Conditions: table 3; rat pituitary membranes, radioiodinated [D-Leu^6 -des Gly^10 ]-LHRH ethyl amide 50 pM, 2 hours at 4° C.; read-out: Receptor Binding pkI (converted)
Square brackets hold non-standard residues; d marks the D form. Peptide text beside a SMILES is read from it. * marks the point of attachment. Propanoyl(3-indol-3-yl) = O=C(CCc1c[nH]c2ccccc12)*; X8 = CN1CCN(S(=O)(=O)N[C@@H](Cc2ccccc2)C(=O)*)CC1; Propanoyl(3-(4-F-phenyl)) = O=C(CCc1ccc(F)cc1)*; Phenylacetyl(4-Cl) = O=C(Cc1ccc(Cl)cc1)*; Desaminotyrosyl = O=C(CCc1ccc(O)cc1)*; Picolinoyl = O=C(c1ccccn1)*; PhAc = O=C(Cc1ccccc1)*
assay-readout: Ki (nM)
Write the value in nM as a bare number.

[[record]]
compound = "CCNC(=O)[C@@H]1CCCN1C(=O)[C@H](CCCNC(=N)N)NC(=O)[C@H](CC(C)C)NC(=O)[C@@H](Cc1c[nH]c2ccccc12)NC(=O)[C@H](Cc1ccc(O)cc1)NC(=O)[C@H](CO)NC(=O)[C@H](Cc1c[nH]c2ccccc12)NC(=O)CCc1ccc(F)cc1 [Compound 97] ({Propanoyl(3-(4-F-phenyl))}-WSY[dW]LRP-NHEt)"
measured = 0.0331

[[record]]
compound = "CCNC(=O)[C@@H]1CCCN1C(=O)[C@H](CCCNC(=N)N)NC(=O)[C@H](CC(C)C)NC(=O)[C@@H](Cc1c[nH]c2ccccc12)NC(=O)[C@H](Cc1ccc(O)cc1)NC(=O)[C@H](CO)NC(=O)C(Cc1cccc2ccccc12)NC(C)=O (single isomer, unassigned) [Compound 83]"
measured = 0.123

[[record]]
compound = "CCNC(=O)[C@@H]1CCCN1C(=O)[C@H](CCCNC(=N)N)NC(=O)[C@H](CC(C)C)NC(=O)[C@@H](Cc1ccc(O)cc1)NC(=O)[C@H](Cc1ccc(O)cc1)NC(=O)[C@H](CO)NC(=O)[C@@H](Cc1ccc(O)cc1)NC(=O)CCc1ccc(F)cc1 [Compound 93] ({Propanoyl(3-(4-F-phenyl))}-[dY]SY[dY]LRP-NHEt)"
measured = 0.0158

[[record]]
compound = "CCNC(=O)[C@@H]1CCCN1C(=O)[C@H](CCCNC(=N)N)NC(=O)[C@H](CC(C)C)NC(=O)[C@@H](Cc1c[nH]c2ccccc12)NC(=O)[C@H](Cc1ccc(O)cc1)NC(=O)[C@H](CO)NC(=O)Cc1ccc(Cl)cc1 [Compound 75] ({Phenylacetyl(4-Cl)}-SY[dW]LRP-NHEt)"
measured = 7.08

[[record]]
compound = "CCNC(=O)[C@@H]1CCCN1C(=O)[C@H](CCCNC(=N)N)NC(=O)[C@H](CC(C)C)NC(=O)[C@@H](CCCCNC(=O)c1ccccn1)NC(=O)[C@H](Cc1ccc(O)cc1)NC(=O)[C@H](CO)NC(=O)CCc1c[nH]c2ccccc12 [Compound 53] ({Propanoyl(3-indol-3-yl)}-SY[dK](Picolinoyl)LRP-NHEt)"
measured = 27.5

[[record]]
compound = "CCNC(=O)[C@@H]1CCCN1C(=O)[C@H](CCCNC(=N)N)NC(=O)[C@H](CC(C)C)NC(=O)[C@@H](CC(C)C)NC(=O)[C@H](Cc1ccc(O)cc1)NC(=O)[C@H](CO)NC(=O)[C@H](Cc1c[nH]c2ccccc12)NC(=O)Cc1ccccc1 [Compound 68] (PhAc-WSY[dL]LRP-NHEt)"
measured = 21.9


Query: Ki; subject: CCNC(=O)[C@@H]1CCCN1C(=O)[C@H](CCCNC(=N)N)NC(=O)[C@H](CC(C)C)NC(=O)[C@@H](Cc1c[nH]c2ccccc12)NC(=O)[C@H](Cc1ccc(O)cc1)NC(=O)[C@H](CO)NC(=O)CCc1ccc(O)cc1 [Compound 76] (Desaminotyrosyl-SY[dW]LRP-NHEt)
Reply: 43.7

Query: Ki; subject: CCNC(=O)[C@@H]1CCCN1C(=O)[C@H](CCCNC(=N)N)NC(=O)[C@H](CC(C)C)NC(=O)[C@@H](Cc1c[nH]c2ccccc12)NC(=O)[C@H](Cc1ccc(O)cc1)NC(=O)[C@H](CO)NC(=O)[C@H](Cc1c[nH]c2ccccc12)NC(=O)[C@H](Cc1ccccc1)NS(=O)(=O)N1CCN(C)CC1 [Compound 129] (X8-WSY[dW]LRP-NHEt)
Reply: 1.86

Query: Ki; subject: CCNC(=O)[C@@H]1CCCN1C(=O)[C@H](CCCNC(=N)N)NC(=O)[C@H](CC(C)C)NC(=O)[C@@H](CCC(N)=O)NC(=O)[C@H](Cc1ccc(O)cc1)NC(=O)[C@H](CO)NC(=O)CCc1c[nH]c2ccccc12 [Compound 50] ({Propanoyl(3-indol-3-yl)}-SY[dQ]LRP-NHEt)
Reply: 166

Measured values drawn from patent US5140009A for this set.
